Assign viability to each entry below.
experiment: MRP1 drug-resistance reversers in H69AR cells – cell-based, doxorubicin co-treatment, primary screen (AID 602); details: H69AR cells, CellTiter-Glo, 72 h; measured here: cytotoxicity without doxorubicin; at 10 µM
The campaign covered roughly 85,000 compounds. About 35 (0.04%) were called active. This excerpt belongs to a sample that is enriched for actives.

Query block: # lookup: viability of O=C(NCCOc1ccccc1)c1ccccc1
Result block: 91.4%

Query block: # lookup: viability of CCn1nccc1C(=O)Nc1ccc(Cl)c(Cl)c1
Result block: 77%

Query block: # lookup: viability of CCc1c(C)sc(NC(=O)c2cccs2)c1C(N)=O
Result block: 99.7%

Query block: # lookup: viability of Cc1ccc(F)c(NC(=O)CCc2ccccc2)c1
Result block: 97.8%

Query block: # lookup: viability of Cc1ccc(-n2c(=O)c(C#N)cc3c(=O)n4ccccc4nc32)cc1C
Result block: 75.1%

Query block: # lookup: viability of CCOc1ccc(Nc2nc(Cc3nnc(SCC(=O)c4ccc(C)cc4)o3)cs2)cc1
Result block: 88.6%

---

assay: MRP1 drug-resistance reversers in H69AR cells – cell-based, doxorubicin co-treatment, primary screen (AID 602); settings: H69AR cells + 2 uM doxorubicin, CellTiter-Glo, 72 h; measured here: viability with 2 uM doxorubicin; at 10 µM; stronger effect = lower value
The whole screen tested about 85,000 compounds, of which about 35 (0.04%) were called active. The full list was thinned out, with actives kept by preference.
Assign viability to each entry below.

Query block: # lookup: viability of CC(C)NC(=O)CSc1ccccc1C(=O)NCc1ccc2c(c1)OCO2
Result block: 91.7%

Query block: # lookup: viability of Cc1cc2nc(C)n(CCCNC(=O)Nc3ccccc3)c2cc1C
Result block: 83.9%

Query block: # lookup: viability of COc1ccc(-n2c(C)csc2=S)cc1
Result block: 89.3%

Query block: # lookup: viability of COc1cccc(N(CC(=O)NCCSc2ccccn2)S(C)(=O)=O)c1
Result block: 92.5%

Query block: # lookup: viability of COc1cccc(OCc2cc(/C=N/NC(=O)c3nc(Cl)c(Cl)c(N)c3Cl)ccc2OC)c1
Result block: 52.1%

Query block: # lookup: viability of CSc1ccccc1NC(=O)c1cc(C2CC2)on1
Result block: 97.2%

Query block: # lookup: viability of COc1cccc(OC)c1C(=O)Nc1ccc(N2CCCCC2)cc1
Result block: 90.1%

Query block: # lookup: viability of CCn1c(SCC(=O)c2ccc3ccccc3c2)nnc1-c1cccs1
Result block: 98.1%

Query block: # lookup: viability of CCCCNC(=O)OC(C)CNC(=O)OC (configuration not stated)
Result block: 111%

Query block: # lookup: viability of CCOc1cccc(C(=O)Nc2nnc(-c3cccs3)s2)c1
Result block: 103%

Query block: # lookup: viability of Cc1ccc(Nc2nnc(SCc3ccccc3)s2)cc1
Result block: 73%

Query block: # lookup: viability of CCOC(=O)c1cnc(SCC(=O)Nc2ccccc2C(=O)OC)nc1N
Result block: 84.2%

---

test: MRP1 drug-resistance reversers in H69AR cells – cell-based, doxorubicin co-treatment, primary screen (AID 602); settings: H69AR cells + 2 uM doxorubicin, CellTiter-Glo, 72 h; measured here: viability with 2 uM doxorubicin; at 10 µM; stronger effect = lower value
The campaign covered roughly 85,000 compounds. About 35 (0.04%) were called active. Many of the other results were omitted from the sample, so actives are more common in it than they were.
Consider the cut-off 90%. If the recorded viability is strictly smaller, the label is True; if not, the label is False.

Query block: # strict comparison: is reported viability < 90%? input = Cc1cc(C(=O)Nc2ccccc2N2CCOCC2)c2ccccc2n1
Result block: True

Query block: # strict comparison: is reported viability < 90%? input = Cc1[nH]n(-c2ccc([N+](=O)[O-])cc2)c(=O)c1C=NCCN1CCN(C(=O)c2ccccc2F)CC1
Result block: True

Query block: # strict comparison: is reported viability < 90%? input = CCOc1ccc(Nc2nc(Cc3nnc(SCC(=O)c4ccc(C)cc4)o3)cs2)cc1
Result block: False

Query block: # strict comparison: is reported viability < 90%? input = O=C(Nc1ccc(Cl)cc1)c1cc2nc(C3CC3)cc(C(F)(F)F)n2n1
Result block: True

Query block: # strict comparison: is reported viability < 90%? input = CCn1nccc1C(=O)Nc1ccc(Cl)c(Cl)c1
Result block: True

Query block: # strict comparison: is reported viability < 90%? input = COc1ccc(-c2nnc(SCC(=O)c3ccc4c(c3)OCCO4)o2)cc1
Result block: False

---

assay: MRP1 drug-resistance reversers in H69AR cells – cell-based, doxorubicin co-treatment, primary screen (AID 602); settings: H69AR cells, CellTiter-Glo, 72 h; measured here: cytotoxicity without doxorubicin; at 10 µM
Hit rate of the full screen: of about 85,000 compounds, about 35 (0.04%) were called active. What follows is part of a selection rich in actives, with near analogues and random picks from the rest.
Consider the cut-off 80%. If the recorded viability is strictly smaller, the label is Satisfied; if not, the label is Not satisfied.

Query block: # strict comparison: is reported viability < 80%? input = CCSc1ccccc1C(=O)NCc1ccc(OC)cc1
Result block: Not satisfied

Query block: # strict comparison: is reported viability < 80%? input = COc1ccc(/C(N)=N/OC(=O)Oc2ccccc2)cc1
Result block: Not satisfied

Query block: # strict comparison: is reported viability < 80%? input = CC(c1ccccn1)N(CCN(C)C)C(=S)Nc1ccccc1F (stereo not given)
Result block: Not satisfied

Query block: # strict comparison: is reported viability < 80%? input = CCOC(=O)c1cnc(SCC(=O)Nc2ccccc2C(=O)OC)nc1N
Result block: Not satisfied

Query block: # strict comparison: is reported viability < 80%? input = CCn1nccc1C(=O)Nc1ccc(S(=O)(=O)NC23CC4CC(CC(C4)C2)C3)cc1
Result block: Satisfied

Query block: # strict comparison: is reported viability < 80%? input = CCOC(=O)/C(C#N)=C\c1c(C)cc(C)c(COC(C)=O)c1C
Result block: Not satisfied

Query block: # strict comparison: is reported viability < 80%? input = COC(=O)c1ccc(Sc2ccc(F)cc2)c(N)c1
Result block: Not satisfied

Query block: # strict comparison: is reported viability < 80%? input = Cc1[nH]n(-c2cccc(Cl)c2)c(=O)c1/C=N/n1c(C)nc2ccccc2c1=O
Result block: Satisfied

Query block: # strict comparison: is reported viability < 80%? input = CCOc1cccc(C(=O)Nc2nnc(-c3cccs3)s2)c1
Result block: Satisfied

Query block: # strict comparison: is reported viability < 80%? input = Cc1nc2ccccc2n1C(=O)N1CCOCC1
Result block: Not satisfied

Query block: # strict comparison: is reported viability < 80%? input = CCCOn1c(-n2nc(C)cc2C)nc2ccccc2c1=O
Result block: Not satisfied

Query block: # strict comparison: is reported viability < 80%? input = CCNc1nc(NC(C)C)nc(OCCOC(=O)c2ccccc2)n1
Result block: Not satisfied

Query block: # strict comparison: is reported viability < 80%? input = CCCCN1C(=O)/C(=C2/C=CC=CN2C)SC1=S
Result block: Not satisfied

Query block: # strict comparison: is reported viability < 80%? input = O=C(Nc1ccc(F)c(Cl)c1)C1CCN(S(=O)(=O)c2cccnc2)CC1
Result block: Satisfied

Query block: # strict comparison: is reported viability < 80%? input = CC(C)=C1SC(N2CCN(c3cccc(C)c3)CC2)=NC1=O
Result block: Not satisfied

Query block: # strict comparison: is reported viability < 80%? input = CC(=O)Nc1ccc(N2C(=O)CCC2=O)cc1C
Result block: Satisfied

Query block: # strict comparison: is reported viability < 80%? input = Cc1cccc(OCCCC(=O)Nc2ccc(S(=O)(=O)N3CCCC3)cc2)c1
Result block: Not satisfied

Query block: # strict comparison: is reported viability < 80%? input = O=C(/C=C/NNC(=O)c1cccc(Br)c1)c1ccccc1
Result block: Satisfied

Query block: # strict comparison: is reported viability < 80%? input = O=S(=O)(Cc1cc(Sc2ccccc2)nc(-c2ccccc2)n1)c1ccccc1
Result block: Not satisfied

---

assay: MRP1 drug-resistance reversers in H69AR cells – cell-based, doxorubicin co-treatment, primary screen (AID 602); settings: H69AR cells + 2 uM doxorubicin, CellTiter-Glo, 72 h; measured here: viability with 2 uM doxorubicin; at 10 µM; stronger effect = lower value
The whole screen tested about 85,000 compounds, of which about 35 (0.04%) were called active. For the sample, actives were picked, then their nearest neighbours and some compounds at random.
quantity_measured: viability (%)
Quick note: give the figure in %, leave out the unit.

Query block: # lookup: viability of O=c1[nH]c2c(c(=O)n1Cc1ccccc1)CCC2
Result block: 94.9

Query block: # lookup: viability of COc1ccc(Cl)cc1C(=O)NCc1cn(C)nc1C
Result block: 80.2

Query block: # lookup: viability of Cc1nnc(SCC(=O)Nc2ncc3c(n2)CC(C)(C)CC3=O)s1
Result block: 79.2

Query block: # lookup: viability of COC(=O)CNC(=O)c1ccccc1F
Result block: 89.6

Query block: # lookup: viability of Cc1ccc(-n2ncc3c(=O)n(-c4ccc(C)c(C)c4)c(-c4ccco4)nc32)cc1
Result block: 71

Query block: # lookup: viability of COc1c(F)c(F)c(C(=O)O)c(Nc2ccccc2C)c1F
Result block: 94.8

Query block: # lookup: viability of CC1(C)CCc2nc(SCc3ccccc3)c(C#N)cc2C1
Result block: 77.7

Query block: # lookup: viability of Cc1nnc(NC(=O)CCCOc2ccccc2)s1
Result block: 80.9

Query block: # lookup: viability of CCc1ccc(CNC(=O)C2CC(=O)N(CCc3ccc(C)cc3)C2)cc1 (stereo unspecified)
Result block: 97.6

Query block: # lookup: viability of Cc1ccc(S(=O)(=O)NCC(=O)N2CCN(c3ccccn3)CC2)cc1
Result block: 87.1

Query block: # lookup: viability of O=C(NCc1cccnc1)Nc1ccccc1F
Result block: 99.8

Query block: # lookup: viability of O=C(CSc1nc2cccnc2n1Cc1ccccc1)N1CCc2ccccc21
Result block: 59.3

Query block: # lookup: viability of Cc1cccc(OCCCC(=O)Nc2ccc(S(=O)(=O)N3CCCC3)cc2)c1
Result block: 82.2

Query block: # lookup: viability of Cc1ccc(C(=O)N/N=C/c2sc(=O)n(Cc3cccc(C(=O)O)c3)c2Cl)cc1
Result block: 92.7

Query block: # lookup: viability of O=C(CCN1C(=O)c2ccccc2C1=O)Nc1cccc(F)c1
Result block: 98.2

Query block: # lookup: viability of Cc1nnc(SCC(=O)NC2CCCC2)s1
Result block: 107

Query block: # lookup: viability of COc1ccc(CNC(=O)CCn2cccc2)cc1
Result block: 100

Query block: # lookup: viability of O=C(c1cccc(F)c1)N1CCC(O)(c2cccnc2)CC1
Result block: 82.9

Query block: # lookup: viability of O=C(Nc1ccc2oc(-c3ccc4ccccc4c3)nc2c1)c1cccs1
Result block: 2.97

Query block: # lookup: viability of O=C1C2C3C=CC(C4CC34)C2C(=O)N1/N=C/c1ccc(-c2ccccc2[N+](=O)[O-])o1 (stereo unspecified)
Result block: 70.3

Query block: # lookup: viability of COC(=O)c1sccc1NC(=O)CCC1CCCC1
Result block: 81.7

Query block: # lookup: viability of O=C1CC(Sc2ncn[nH]2)C(=O)N1c1ccccc1 (stereo unspecified)
Result block: 87

Query block: # lookup: viability of COc1ccc(C2C(C#N)=C(/N=C/N3CCOCC3)OC3=C2C(=O)CC(C)(C)C3)cc1OC (stereo unspecified)
Result block: 83.8

Query block: # lookup: viability of Cc1cc(NC(=O)CSc2nc(C(C)C)nc3sc4c(c23)CCC(C)C4)no1 (stereo unspecified)
Result block: 8.84

Query block: # lookup: viability of CC(CO)N1CCS(=O)(=O)CC1 (stereo unspecified)
Result block: 83.8

Query block: # lookup: viability of COc1ccc(NC(=O)Nc2ccc3nc(C)c(C)nc3c2)cc1
Result block: 85.3

Query block: # lookup: viability of COC(=O)C1=C(Nc2ccc(C)cc2)C=C(C)C(C(=O)OC)C1c1ccc(F)cc1 (stereo unspecified)
Result block: 43.6

Query block: # lookup: viability of O=C(c1ccc2c(c1)OCO2)N1CCN(C(=O)c2ccco2)CC1
Result block: 73

Query block: # lookup: viability of COC(=O)CCSc1cc([N+](=O)[O-])cc2c1c(C1OCCS1)nn2-c1ccccc1 (stereo unspecified)
Result block: 101

Query block: # lookup: viability of COC(=O)c1ccccc1NC(=O)CSc1nnnn1C
Result block: 104

Query block: # lookup: viability of CC(C)=C1SC(N2CCN(c3cccc(C)c3)CC2)=NC1=O
Result block: 81.8

Query block: # lookup: viability of Cc1cnc(NC(=O)C2CCCC2)s1
Result block: 100

Query block: # lookup: viability of CO/N=C(/CS(=O)(=O)c1ccc(Br)cc1)c1ccc(OC)cc1
Result block: 58.3

Query block: # lookup: viability of O=S(=O)(Nc1ccc(Oc2ncccn2)c(Cl)c1)c1ccc(F)cc1
Result block: 88.8

Query block: # lookup: viability of O=C(CN1CCCCCC1)N1c2ccccc2Sc2ccc(C(F)(F)F)cc21
Result block: 50.3

Query block: # lookup: viability of CCOC(=O)CSc1nc2ccc(C)cc2[nH]1
Result block: 87.3

Query block: # lookup: viability of COc1ccc(C(=O)Nc2nc(-c3ccc(S(=O)(=O)N4CCOCC4)cc3)cs2)cc1
Result block: 62.1

Query block: # lookup: viability of CCC(C)(C)n1nnnc1CN1CCN(c2nc3ccc(C)cc3cc2C#N)CC1
Result block: 81.3

Query block: # lookup: viability of CCCCC(C(=O)OCC(=O)c1ccc(OC)cc1)N1C(=O)c2ccccc2C1=O (stereo unspecified)
Result block: 104

Query block: # lookup: viability of CCOc1cc2[nH]c(=S)n(CCN3CCCCC3C)c(=O)c2cc1OCC (stereo unspecified)
Result block: 78.5

Query block: # lookup: viability of Cc1ccc(-n2c(=O)c(C#N)cc3c(=O)n4ccccc4nc32)cc1C
Result block: 87.2

Query block: # lookup: viability of COC(=O)c1ccc(Sc2ccc(F)cc2)c(N)c1
Result block: 97.4

Query block: # lookup: viability of CC(=O)NC1(c2cccc(F)c2)CCN(CC(=O)NC(C)C)CC1
Result block: 90.6

Query block: # lookup: viability of Cc1ccc(CN(N=Nc2nonc2N)c2nonc2N)c(C)c1
Result block: 76.9

Query block: # lookup: viability of CC(C)(CNC(=O)c1cc(=O)[nH]c2ccccc12)N1CCOCC1
Result block: 97.6

Query block: # lookup: viability of CS(=O)(=O)N(CC(=O)Nc1ccc(Cl)c(Cl)c1)C1CCCCC1
Result block: 34.8
